The entries below are paired with their reported EC50.
TARGET_UNDER_TEST: LHRH binding sites on EFO-27 human ovarian cancer cells (human)
PROCEDURE_SUMMARY: competition with [125I-Tyr8]BRU-2477 on EFO-27 cells
Non-standard residues stand in square brackets, D forms with d. Bpa = N[C@@H](Cc1ccc(C(=O)c2ccccc2)cc1)C(=O)O; DO3A10CM = not defined here; Ahgly = not defined here; azaGly = NNC(=O)O

# BINDER, EC50
records = [
    ("XHWSHXWXPX (DO3A10CM on N-terminus; AA1 Sar; AA6 Darg; AA8 Nal1; AA10 azaGly-NH2) [BRU-2720]", "540 nM"),
]

// query Which measured EC50 value corresponds to XHWSHXWXPX (DO3A10CM on N-terminus; AA1 Sar; AA6 Darg; AA8 Dip; AA10 azaGly-NH2) [BRU-2721] ?
// result 4550 nM

// query Same question for DO3A10CM-G[Ahgly]HWSH[dR]W[Bpa]P[azaGly]-NH2 (not fully specified; reading uncertain) [BRU-2876] please.
// result 500 nM

// query Same question for XRWSHXWXPX (DO3A10CM on N-terminus; AA1 Qua3; AA6 Darg; AA8 Bpa4; AA10 azaGly-NH2) [BRU-3057] please.
// result 380 nM
